- measured-target: Serine/threonine-protein phosphatase PP1-alpha catalytic subunit (Homo sapiens)
- test-details: NVS_ENZ_hPPP1CA: NovaScreen (NVS) Enzymatic Assay for human Protein Phosphatase 1 Aatalytic subunit Alpha (PPP1CA) (AID 2283200)
Records with an inconclusive call do not appear. Active and inactive are the calls of the source. The calls were made as follows: active = hit-call score of the fitted dose curve at least 0.9, where 1 is the maximum; inconclusive = response in the unintended direction; inactive = score below 0.9.
Outcome (select one): active, inactive

Consider the following illustrative entries.
| compound | group-label |
| --- | --- |
| CCCCCCc1ccc(O)cc1O | inactive |
| Nc1nc2ncc(CNc3ccc(C(=O)N[C@@H](CCC(=O)O)C(=O)O)cc3)nc2c(=O)[nH]1 | active |
| O=C(O)c1cccc(Oc2ccccc2)c1 | inactive |
| COCCOCCOCCOC | inactive |

Let's switch to this compound now.
Qu. Hi, sorry to bother you, what did the test record for O=c1n(CC2CO2)c(=O)n(CC2CO2)c(=O)n1CC1CO1 (stereo not given) ?
Ans. inactive

* * *

- test-details: APR_HepG2_p53Act_24hr: Apredica 24-hour HepG2 Assay for p53 Activation (AID 2282913);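 also: p53 protein immunofluorescence averaged per cell in HepG2 with Hoechst nuclei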
- conditions: high-content imaging, actives raise or lower the signal
The source made the active and inactive calls. How the source made its calls: active means hit-call score of the fitted dose curve at least 0.9, where 1 is the maximum; inactive means score below 0.9.
Outcome (select one): active, inactive

Qu. Hi, sorry to bother you, what did the test record for CC(C)CC(C)(O)C#CC(C)(O)CC(C)C (stereo not given) ?
Ans. inactive

Qu. Hi, sorry to bother you, what did the test record for `CC(C)=CCC/C(C)=C/CO` ?
Ans. inactive

Qu. Hi, sorry to bother you, what did the test record for `CC[C@H]1OC(=O)[C@H](C)[C@@H](O[C@H]2C[C@@](C)(OC)[C@@H](O)[C@H](C)O2)[C@H](C)[C@@H](O[C@@H]2O[C@H](C)C[C@H](N(C)C)[C@H]2O)[C@](C)(O)C[C@@H](C)C(=O)[C@H](C)[C@@H](O)[C@]1(C)O` ?
Ans. inactive

Qu. Hi, sorry to bother you, what did the test record for `Clc1nc(Cl)c(Cl)c(Cl)c1Cl` ?
Ans. active

Qu. Hi, sorry to bother you, what did the test record for `CCOc1cccc(-n2cc(C(=O)N3CCN(c4cc(C(=O)O)c5ccccc5c4)CC3)nc2-c2ccc(C)cc2)c1` ?
Ans. active

Qu. Hi, sorry to bother you, what did the test record for `COC(=O)c1c(Cl)c(Cl)c(C(=O)OC)c(Cl)c1Cl` ?
Ans. inactive

Qu. Hi, sorry to bother you, what did the test record for `Oc1ccc2c(c1)-c1ccccc1C2` ?
Ans. active

Qu. Hi, sorry to bother you, what did the test record for `CN(C)c1ccc(Cc2ccc(N(C)C)cc2)cc1` ?
Ans. inactive

Qu. Hi, sorry to bother you, what did the test record for O=C1CCC(N2C(=O)c3ccccc3C2=O)C(=O)N1 (stereo not given) ?
Ans. inactive

Qu. Hi, sorry to bother you, what did the test record for `Nc1cccc(N)c1` ?
Ans. inactive

Qu. Hi, sorry to bother you, what did the test record for `CCOCCO` ?
Ans. inactive

Qu. Hi, sorry to bother you, what did the test record for O=C(O)CC(O)C(=O)O (stereo not given) ?
Ans. inactive

Qu. Hi, sorry to bother you, what did the test record for `CCC(C)(C)C(=O)O[C@H]1C[C@@H](C)C=C2C=C[C@H](C)[C@H](CC[C@@H]3C[C@@H](O)CC(=O)O3)[C@H]21` ?
Ans. active

Qu. Hi, sorry to bother you, what did the test record for `Cn1c(=O)c2c(ncn2C)n(C)c1=O` ?
Ans. inactive

* * *

- Read-out: solute carrier (SLC22A1), SLC22A1 (gene 6580)
- test-details: LTEA_HepaRG_SLC22A1: Life Technologies and Expression Analysis (LTEA) Assay for solute carrier (SLC22A1) using HepaRG (AID 2283524)
- conditions: mRNA level, 48 h; actives raise or lower the signal
The source made the active and inactive calls. Rule for the calls: active = hit-call score of the fitted dose curve at least 0.9, where 1 is the maximum; inactive = score below 0.9.
Outcome (select one): true (1) for active, false (0) for inactive

Consider the following illustrative entries.
| molecule | group-label |
| --- | --- |
| CCOc1cccc(-n2cc(C(=O)N3CCN(c4cc(C(=O)O)c5ccccc5c4)CC3)nc2-c2ccc(C)cc2)c1 | true (1) |
| CC(=O)OCCC(C)C | false (0) |
| COCCOCCOCCOC | false (0) |
| Fc1ccccc1[C@@H](F)COC1CCC(Nc2ncnc3[nH]ncc23)CC1 (stereo partly specified) | true (1) |
| CCCN(C1CCN(C(=O)C2CCNCC2)CC1)[C@@H]1CCc2ccc(OC)cc2C1 | true (1) |
| CNS(=O)(=O)c1cc(C(=O)N2CCC(CCN3C4CCC3CC(n3c(C)nc5ccccc53)C4)(c3cccc(F)c3)CC2)c(Cl)cc1F (stereo unspecified) | true (1) |

Let's switch to this molecule now.
Qu. Hi, sorry to bother you, what did the test record for `O=C(O)c1cccc(Oc2ccccc2)c1` ?
Ans. false (0)

* * *

- Read-out: ABC Transporter (ABCB1), ABCB1 (gene 5243)
- test-details: LTEA_HepaRG_ABCB1: Life Technologies and Expression Analysis (LTEA) Assay for ABC Transporter (ABCB1) using HepaRG (AID 2283460)
- conditions: mRNA level, 48 h; actives raise or lower the signal
Calls of active or inactive are those of the source. How the source made its calls: active means hit-call score of the fitted dose curve at least 0.9, where 1 is the maximum; inactive means score below 0.9.
measured-quantity: AC50

Known AC50 results, listed for orientation:
| cpd-smiles | AC50 |
| --- | --- |
| CCNc1ccccc1 | inactive |
| CCOc1cccc(-n2cc(C(=O)N3CCN(c4cc(C(=O)O)c5ccccc5c4)CC3)nc2-c2ccc(C)cc2)c1 | 78.6 µM (active) |
| C1N2CN3CN1CN(C2)C3 | inactive |
| Nc1ccc(Nc2ccccc2)cc1 | inactive |
| COC(=O)CC(=O)OC | inactive |

Then this molecule:
Qu. I would be grateful if you could share the reported AC50 for `Nc1nc2ncc(CNc3ccc(C(=O)N[C@@H](CCC(=O)O)C(=O)O)cc3)nc2c(=O)[nH]1` .
Ans. inactive

* * *

- Read-out: solute carrier (SLC22A1), SLC22A1 (gene 6580)
- test-details: LTEA_HepaRG_SLC22A1: Life Technologies and Expression Analysis (LTEA) Assay for solute carrier (SLC22A1) using HepaRG (AID 2283524)
- conditions: mRNA level, 48 h; actives raise or lower the signal
Calls of active or inactive are those of the source. How the source made its calls: active means hit-call score of the fitted dose curve at least 0.9, where 1 is the maximum; inactive means score below 0.9.
Outcome (select one): active, inactive

| molecule | group-label |
| --- | --- |
| CC1=CC(=O)CC(C)(C)C1 | inactive |
| CCN(C(=O)c1cc(C)cc(OC[C@H](C)Nc2ccncc2)c1)C(C)C | active |
| O=C(O)CC(O)C(=O)O (stereo not given) | inactive |

Let's switch to this molecule now.
Qu. Hi, sorry to bother you, what did the test record for `Cn1c(=O)cc(Oc2ccc(F)cc2F)c2cnc(NCC(C)(C)O)nc21` ?
Ans. inactive

* * *

- Read-out: CYP2E1 (gene 1571)
- test-details: LTEA_HepaRG_CYP2E1: Life Technologies and Expression Analysis (LTEA) Assay for CYP2E1 using HepaRG (AID 2283485)
- conditions: mRNA level, 48 h; actives raise or lower the signal
Active and inactive are the calls of the source. The calls were made as follows: active = hit-call score of the fitted dose curve at least 0.9, where 1 is the maximum; inactive = score below 0.9.
measured-quantity: AC50

| compound | AC50 |
| --- | --- |
| CCCC(=O)OCC | inactive |
| Cc1c(-c2cccnc2)c2ccccc2n1CCCCC(=O)O | inactive |
| COCCOCCOCCOC | inactive |
| C[C@](N)(Cc1ccc(O)c(O)c1)C(=O)O | inactive |
| CCN(C(=O)c1cc(C)cc(OC[C@H](C)Nc2ccncc2)c1)C(C)C | 27.9 µM (active) |

Could you tell me AC50 for each of these compounds? They are listed below.
1. O=c1[nH]c2ccc(S(=O)CCN3CCC(Cc4ccc(F)cc4)CC3)cc2o1 (stereo not drawn)
2. CCOCCO
3. CC(C)(O)c1coc(S(=O)(=O)NC(=O)Nc2c3c(cc4c2CCC4)CCC3)c1

Ans.
1. 50 µM (active)
2. inactive
3. 36.8 µM (active)

Could you tell me AC50 for each of these compounds? They are listed below.
1. Nc1cccc(N)c1
2. CC(C)CCCCCCOC(=O)c1ccc(C(=O)OCCCCCCC(C)C)c(C(=O)OCCCCCCC(C)C)c1
3. COc1cccc(-c2ccc(/C=C\CN3CCCCCC3)cc2Cl)c1
4. COC(=O)c1ccccc1O
5. C1=CCCC=CCCC=CCC1

Ans.
["inactive", "inactive", "61.8 µM (active)", "inactive", "inactive"]

* * *

- Read-out: Intercellular Adhesion Molecule 1 (ICAM1), ICAM1 (gene 3383)
- test-details: BSK_KF3CT_ICAM1: BioMAP Diversity Plus: KF3CT Assay for Intercellular Adhesion Molecule 1 (ICAM1) Biomarker Activity (AID 2283067)
- conditions: primary human keratinocytes with fibroblasts; actives raise or lower the signal
Active and inactive are the calls of the source. Rule for the calls: active = hit-call score of the fitted dose curve at least 0.9, where 1 is the maximum; inactive = score below 0.9.
Outcome (select one): TRUE for active, FALSE for inactive

| compound | group-label |
| --- | --- |
| Cc1ccc(C)c(O)c1 | FALSE |
| O=C(CCCCCCCCc1cccnc1)N1CCC(C=C(c2ccccc2)c2ccccc2)CC1 | TRUE |
| COc1ccc2sc(C(=O)Nc3nnn[nH]3)c(OC(C)C)c2c1 | TRUE |

Qu. Hi, sorry to bother you, what did the test record for `Nc1ccc(Nc2ccccc2)cc1` ?
Ans. FALSE

Qu. Hi, sorry to bother you, what did the test record for `CNCc1ccc(NC(=O)c2c[nH]c3c2C(=O)CCC3)cc1` ?
Ans. FALSE
